Source of measurements: PubChem BioAssay (NCI)

System: SNB-75 CNS
experiment-description: NCI tumour cell line growth inhibition, 48 h
Quick reference for TGI among some molecules

molecule	target-system	qualifier-symbol	TGI / µM
CCOCCCn1c2c(c3c(O)cccc31)C(=O)c1ccccc1-2	SNB-75 CNS	=	50.3
N=c1c2c(=S)n(-c3ccccc3)c(=S)n(-c3ccccc3)c2nc(SCCN2CCCC2)n1-c1ccccc1	SNB-75 CNS	=	8.29
CCC(C)Nc1ccc(N)cc1 (stereo unspecified)	SNB-75 CNS	=	20.3
CC(=O)c1c2c(cc3c1CC1(C3)Cc3cc4c(c(C(C)=O)c3C1)CCC4)CCC2	SNB-75 CNS	>	100
CN(C)C(=N/O)/C(=N\O)N(C)C	SNB-75 CNS	>	100
Nc1ccc(C(=O)N/C(=C\c2cccc([N+](=O)[O-])c2)c2nc3[nH]c(=S)[nH]c(=O)c3[nH]2)cc1	SNB-75 CNS	=	32.1

----------
Listed compounds paired with reported TGI
System: HT29 colon
experiment-description: NCI tumour cell line growth inhibition, 48 h

compound	target-system	TGI
CN(C)CCNC(=O)c1cccc2cc3c(Cl)cccc3nc12	HT29 colon	6.94 µM
CC1=C(C(=O)Nc2ccccc2)C(c2cccc3ccccc23)C(C(=O)Nc2ccccc2)=C(C)N1	HT29 colon	36.2 µM
COC(=O)[C@H](Cc1cnc[nH]1)NC(=O)[C@@H](NC(=O)Nc1cc(C(F)(F)F)cc(C(F)(F)F)c1)C(C)C	HT29 colon	33.8 µM
Cn1c(CO)ccc1-c1ccc(-c2ccc[se]2)[se]1	HT29 colon	> 100 µM
COc1cc(Nc2ncc(-c3ccccc3)o2)cc(OC)c1	HT29 colon	> 25 µM
O=c1ccn(C2OC(CO)C(O)C2F)c(=O)n1Cc1ccccc1 (stereo not given)	HT29 colon	> 100 µM
Cc1csc2[n+]1-c1ccccc1N(C(=O)Nc1ccccc1)C(C)C2 (stereo not given)	HT29 colon	> 100 µM
COC(=O)C1Cc2c(n(C)c3ccccc23)C(CCC(=O)O)N1Cc1ccccc1 (stereo not given)	HT29 colon	> 100 µM
O=C1C=CC=C/C1=C1/SC(c2ccccc2)=C(O)N1c1ccccc1	HT29 colon	> 100 µM
COc1ccccc1NC(=O)CC(=O)N1N=C(N2c3ccccc3Sc3ccccc32)CC1c1ccccc1 (stereo not given)	HT29 colon	> 100 µM

----------
Tested on: A549 NSCLC
experiment-description: NCI tumour cell line growth inhibition, 48 h
# TGI per record follows

molecule	target-system	TGI
CCCCCCCCCCCC[C@@H](O)[C@H]1CCC([C@H](O)CCCCC(=O)CCCCCCCC2=C[C@H](C)OC2=O)O1 (some centres not stated)	A549 NSCLC	> 50 µM
C/C=C1\CN(C(=O)OC(C)(C)C)C1C(=O)OC(C)(C)C (configuration not stated)	A549 NSCLC	> 100 µM
COC(=O)c1c(O)ccc2[nH]c3c(O)c4ccccc4cc3c12	A549 NSCLC	> 100 µM
CCN(Cc1ccccc1)C1CCN(Cc2cc(Br)ccc2O)CC1	A549 NSCLC	> 100 µM
COC(=O)c1ccc(C)cc1CC1Cc2ccc(C)cc2C1=O (configuration not stated)	A549 NSCLC	93.5 µM
N#C/C(=C/c1ccc2c(c1)OCO2)C(=O)c1ccccc1	A549 NSCLC	> 100 µM
O=C(Nc1cccc([N+](=O)[O-])c1)c1n[nH]n(-c2cccc([N+](=O)[O-])c2)c1=O	A549 NSCLC	> 100 µM
